Assay: Phase 1 multiple ascending dose (MAD) pharmacokinetics with CSF collection in healthy volunteers
Assay type: in vivo, human
Details: male, human, plasma, oral, 135 mg, 135 mg daily, fed, Day 8; read-out: Cmax, Observed
Description: […] The ratio of unbound leriglitazone concentration in brain to unbound concentration in plasma (Kpu,u; Cb,u/Cp,u) was calculated dividing the unbound CSF Cmax by the unbound plasma Cmax. […]
Result Type: Cmax (ng/mL)
# number only, unit ng/mL dropped from output

Fill blank: measured Cmax of the molecule CC(O)c1ccc(CCOc2ccc(CC3SC(=O)NC3=O)cc2)nc1 (stereo not shown) [Leriglitazone] is ____. 9490

====

assay: Phase 1 single ascending dose (SAD) pharmacokinetics in healthy volunteers; format: in vivo, human; details: male, human, plasma, oral, 270 mg, single dose 270 mg Fasted; read-out: Cmax, Observed
Result Type: Cmax
Write the numeric value and append its unit.

Which measured Cmax value corresponds to CC(O)c1ccc(CCOc2ccc(CC3SC(=O)NC3=O)cc2)nc1 (stereo not shown) [Leriglitazone] ? 13400 ng/mL

====

test: Phase 1 multiple ascending dose (MAD) pharmacokinetics with CSF collection in healthy volunteers; type: in vivo, human; conditions: male, human, CSF and plasma, oral; 270 mg MD Day 8; geometric mean (CV %); read-out: CSF/Plasma
Measured Kp at 4 h of individual entries
// return just the number, without any unit appended

# Compound, Kp at 4 h
records = [
    ("CC(=O)c1ccc(CCOc2ccc(CC3SC(=O)NC3=O)cc2)nc1 (centres unmarked)", 0.004),
]

In the following, a different compound is considered.
Kp at 4 h for CC(O)c1ccc(CCOc2ccc(CC3SC(=O)NC3=O)cc2)nc1 (centres unmarked) ? 0.024

====

experiment: Phase 1 single ascending dose (SAD) pharmacokinetics in healthy volunteers; format: in vivo, human; details: male, human, plasma, oral, 270 mg, SAD Fed doses 90, 270 mg; NCA estimate; read-out: Vss, Mean
Result Type: Vd (L/kg)
Write the answer as a number in L/kg, unit excluded.

Could you share which Vd value was measured for CC(O)c1ccc(CCOc2ccc(CC3SC(=O)NC3=O)cc2)nc1 (stereo not shown) [Leriglitazone] ? 0.32

====

assay: Phase 1 multiple ascending dose (MAD) pharmacokinetics with CSF collection in healthy volunteers; type: in vivo, human; conditions: male, human, CSF, oral; 135 mg MD Day 8, 4 hours post-dose; total; geometric mean (CV %); read-out: CSF C4h
Result Type: concentration at 4 h

# Compound, concentration at 4 h
records = [
    ("CC(=O)c1ccc(CCOc2ccc(CC3SC(=O)NC3=O)cc2)nc1 (centres unmarked)", "13 ng/mL"),
]

Now turn to the next compound.
Using the record for CC(O)c1ccc(CCOc2ccc(CC3SC(=O)NC3=O)cc2)nc1 (centres unmarked) , report its concentration at 4 h. 188 ng/mL

====

test: Phase 1 multiple ascending dose (MAD) pharmacokinetics with CSF collection in healthy volunteers; format: in vivo, human; conditions: male, human, plasma, oral, 135 mg, 135 mg daily, fed, Day 1; read-out: AUC, Observed
Result Type: AUC (ng·h/mL)
Answer format: numeric, ng·h/mL implied, no suffix.

Which value of AUC has been reported for CC(O)c1ccc(CCOc2ccc(CC3SC(=O)NC3=O)cc2)nc1 (stereo not shown) in the records? 85100
